Values compiled from paper PMC5595344.

target: FimX (Pseudomonas aeruginosa); construct: dimer in solution (ca. 150 kDa by SEC); assay: surface plasmon resonance (BIAcore T100), FimX immobilized on CM5 chip
Sequence (Q9HUK6 entry or part of it): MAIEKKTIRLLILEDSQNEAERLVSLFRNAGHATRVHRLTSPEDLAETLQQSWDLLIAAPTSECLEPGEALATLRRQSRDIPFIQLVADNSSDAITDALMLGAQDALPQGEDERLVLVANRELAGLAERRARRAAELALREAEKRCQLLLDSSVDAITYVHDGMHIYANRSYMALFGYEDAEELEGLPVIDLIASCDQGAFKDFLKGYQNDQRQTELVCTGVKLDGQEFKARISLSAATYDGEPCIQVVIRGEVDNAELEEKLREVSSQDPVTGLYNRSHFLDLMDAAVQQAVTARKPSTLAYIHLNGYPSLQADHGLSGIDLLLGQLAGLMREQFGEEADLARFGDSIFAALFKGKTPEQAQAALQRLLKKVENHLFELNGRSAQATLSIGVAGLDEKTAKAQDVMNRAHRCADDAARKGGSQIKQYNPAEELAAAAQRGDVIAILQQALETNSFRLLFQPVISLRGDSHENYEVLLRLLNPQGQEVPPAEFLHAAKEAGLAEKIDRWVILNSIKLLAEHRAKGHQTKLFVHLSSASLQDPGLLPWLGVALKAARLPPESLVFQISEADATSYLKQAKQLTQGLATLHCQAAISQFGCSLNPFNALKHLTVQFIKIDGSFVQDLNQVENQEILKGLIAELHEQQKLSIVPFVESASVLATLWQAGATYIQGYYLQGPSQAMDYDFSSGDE
measurement name: Kd (nM)

molecule: Nc1nc2c(ncn2[C@@H]2O[C@@H]3CO[P@](=O)(O)O[C@H]4[C@@H](O)[C@H](n5cnc6c(=O)[nH]c(N)nc65)O[C@@H]4CO[P@](=O)(O)O[C@H]3[C@H]2O)c(=O)[nH]1
readout units: nM
test result: 88
